Values compiled from ChEMBL document CHEMBL5136999.

System: Human immunodeficiency virus 1
Assay: Antiviral activity against HIV-1 harboring K101P mutant infected in human MT2 cells assessed as protection against virus-induced cytopathicity by MTT assay
Type: functional, organism-based
Conditions: Human immunodeficiency virus 1, MT2
readout_label: pEC50
Please note pEC50 is a logarithmic value: minus log10 of concentration in mol/L. Answer with that number alone.

Q: I am curious: what pEC50 value has been reported for N#Cc1cc2c(Oc3ccccc3OCCn3ccc(=O)[nH]c3=O)cccn2c1 ?
Result: 9.00

---

Recorded EC50, one value per entry.
System: Human immunodeficiency virus 1
Test: Antiviral activity against wild type HIV-1 IIIB infected in human MT4 cells assessed as protection against virus-induced cytopathicity by MTT assay
Assay type: functional, organism-based
Details: Human immunodeficiency virus 1, IIIB
Only the number, expressed in nM, is required.

| compound | readout_label | measured_number |
| --- | --- | --- |
| O=C1Nc2ccc(Cl)cc2[C@@](C#CC2CC2)(C(F)(F)F)O1 [EFAVIRENZ] | EC50 | 3.2 |
| Cc1cc(/C=C/C#N)cc([N+](=O)[O-])c1Nc1nc(Nc2ccc(C#N)cc2)nc2ccccc12 | EC50 | 3.4 |

Next up:
Q: I am curious: what EC50 value has been reported for Cc1cc(/C=C/C#N)cc([N+](=O)[O-])c1Nc1nc(Nc2ccc(C#N)cc2)nc2ccc(Cl)cc12 ?
Result: 10.6

---

Assay: Cytotoxicity against human MT4 cells assessed as cell viability by MTT assay
Format: toxicity, cell-based
readout_label: CC50 (µM)
Only the number, expressed in µM, is required.

| sample_smiles | CC50, µM |
| --- | --- |
| Cc1cc(/C=C/C#N)cc([N+](=O)[O-])c1Nc1nc(Nc2ccc(C#N)cc2)nc2ccc(Cl)cc12 | 3.95 |

Next up:
Q: I am curious: what CC50 value has been reported for Cc1cc(/C=C/C#N)cc([N+](=O)[O-])c1Nc1nc(Nc2ccc(C#N)cc2)nc2ccccc12 ?
Result: 6.14

---

Test: Cytotoxicity against human MT2 cells assessed as cell viability
Format: toxicity, cell-based
readout_label: CC50

Q: I am curious: what CC50 value has been reported for Cc1c(Oc2ccccc2OCCn2ccc(=O)[nH]c2=O)cc(Cl)c2ccc(C#N)cc12 ?
Result: > 100 µM

---

Tested on: Human immunodeficiency virus 1
Assay: Antiviral activity against HIV-1 harboring K103N mutant infected in human MT4 cells assessed as protection against virus-induced cytopathicity by MTT assay
Assay type: functional, organism-based
Details: Human immunodeficiency virus 1, MT4
readout_label: EC50 (nM)
Only the number, expressed in nM, is required.

Example compounds with recorded EC50:
| sample_smiles | u | EC50 |
| --- | --- | --- |
| Cc1cc(C#N)cc(C)c1Oc1nc(Nc2ccc(C#N)cc2)nc(N)c1Br | nM | 3.5 |
| Cc1cc(/C=C/C#N)cc([N+](=O)[O-])c1Nc1nc(Nc2ccc(C#N)cc2)nc2ccc(Cl)cc12 | nM | 10.2 |

Q: Query for Human immunodeficiency virus 1: what EC50 does the record show for O=C1Nc2ccc(Cl)cc2[C@@](C#CC2CC2)(C(F)(F)F)O1 ?
Result: 147

Q: Would you kindly repeat that for Cc1cc(/C=C/C#N)cc([N+](=O)[O-])c1Nc1nc(Nc2ccc(C#N)cc2)nc2ccccc12 ?
Result: 3.6
